Target: T1, human IL-22 (human, UniProt Q9GZX6 34-179)
T1 sequence: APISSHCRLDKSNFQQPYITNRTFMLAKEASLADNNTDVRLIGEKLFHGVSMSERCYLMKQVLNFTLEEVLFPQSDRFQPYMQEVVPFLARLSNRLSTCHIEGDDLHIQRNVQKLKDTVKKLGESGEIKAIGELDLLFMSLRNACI
Experiment: cell-based or functional assay
Rule: IC50 of scFv in BaF3-IL-22 proliferation assay below 0.2 nM gives Criterion met. Equal to or above 0.2 nM gives Criterion not met.

Binder | Class assignment
062G05 scFv (non-germlined) (scFv, Optimized clone derived from GIL16) scFv: QVQLVESGAEVKKPGASVKVSCKASGYTFTSYGISWVRQAPGQGLEWMGWISAYTGNTNYAQKFQGRVTMTTDTSTSTAYMELRSLRSDDTAVYYCARDRGYYDAFDIWGQGTLVTVSSGGGGSGGGGSGGGGSDIQMTQSPSTLSASIGDRVTITCRASEGIYHWLAWYQQKPGKAPKLLIYKASSLASGAPSRFSGSGFGTDFTLTISSLQPDDFATYYCQQMGEWKAAFGGGTKLEIKRAAAH | Criterion met
376B10 scFv (non-germlined) (scFv, Optimized clone derived from GIL68) scFv: EVQLVQSGAEVKKPGASVKVSCQASGYTFSDYYIHWVRQTPGQGFEWMGWVNPDTGGTRYAQKFQGWVTMTRDMSNTTAYMELPGLRDDDTAVYYCARDLTGYDQYTAWGQGTLVTVSSGGGGSGGGGSGGGGSAQSVLTQPPSVSVAPGKTATITCGGNNFRNKRVHWYQQRPGQAPVLVIYYDSDRPSGIPERFSGSRSGNTATLTISRVEAGDEADFYCSTFDPFTDRPLFGGGTKLTVLGAAAH | Criterion met
166B06 scFv (non-germlined) (scFv, Optimized clone derived from GIL68) scFv: EVQLVQSGAEVKKPGASVKVSCQASGYTFSDYYIHWVRQTPGQGFEWMGWVNPDTGGTRYAQKFQGWVTMTRDMSNTTAYMELPRLRDDDTAVYYCARDLTGFDPFDIWGQGTLVTVSSGGGSSGGGGSGGGGSAQSVLTQPPSVSVAPGKTATITCGGNNFRNKRVHWYQQRPGQAPVLVIYYDSDRPSGIPERFSGSRSGNTATLTISRVEAGDEADFYCQVWDLFNDNGVFGGGTKLTVLGAAAH | Criterion not met
087B03 scFv (non-germlined) (scFv, Optimized clone derived from GIL60) scFv: EVQLVESGGGVVRPGGSLRLSCAASGFTFDDYGMNWVRQAPGKGLEWVSGVNWNGGTRDYAASVKGRFTISRDNAKNSLYLQMNSLRAEDTALYYCARGWYSGAAWNMGYWGRGTLVTVSSGGGGSGGGGSGGGGSAQAVLTQPSSVSGSPGQSITISCTGASGDVGAYNFVSWYQQHPGKTPKLIIYDVNKRPSGVSNRFSGSKSSNTASLTISGLQAEDESDYYCSSYTSTFSVVFGGGTKVTVLGAAAH | Criterion not met
368D04 scFv (non-germlined) (scFv, Optimized clone derived from GIL60) scFv: EVQLVESGGGVVRPGGSLRLSCAASGFTFDDYGMNWVRQAPGKGLEWVSGVNWNGGTRDYAASVKGRFTISRDNAKNSLYLQMNSLRAEDTALYYCARGWYSGAAWNMGYWGRGTLVTVSSGGGGSGGGGSGGSGGGSGGGGGGSGGGGSAQAVLTQPSSVSGSPGQSITISCTGASGDVGAYNFVSWYQQHPGKTPKLIIYDVNKRPSGVSNRFSGSKSGNTASLTISGLQAEDESDYYCASLVSDFSVVFGGGTKVTVLGAAAH | Criterion met
062A09 scFv (non-germlined) (scFv, Optimized clone derived from GIL16) scFv: QVQLVESGAEVKKPGASVKVSCKASGYTFTSYGISWVRQAPGQGLEWMGWVSAYTGNTNYAQKFQGRVTMTTDTSTSTAYMELRGLRSDDTAVYYCARDRGYYDAYDIWGQGTLVTVSSGGGGSGGGGSGGGGSDIQMTQSPSTLSASIGDRVTITCRASEGIYHWLAWYQQKPGKAPKLLIYKASSLASGAPSRFSGSGFGTDFTLTISSLQPDDFATYYCQQMGEYNATIGGGTKLEIKRAAAH | Criterion not met
